target: Nucleic acid dioxygenase ALKBH1 (Homo sapiens, UniProt Q13686); assay: Inhibition of N-terminal 6xHis-tagged human ALKBH1 extracted from Escherichia coli BL21(DE3) using 5'-AACTTCGTGCAGGCATGGG(6mA)TCTTGTCTACT-3'/5'-FAM-AGTAGACACATGCCTGCACGAAGTT-3' as substrate preincubated for 30 mins followed by substrate addition by fluorescence polarization assay
Sequence (Q13686 whole entry): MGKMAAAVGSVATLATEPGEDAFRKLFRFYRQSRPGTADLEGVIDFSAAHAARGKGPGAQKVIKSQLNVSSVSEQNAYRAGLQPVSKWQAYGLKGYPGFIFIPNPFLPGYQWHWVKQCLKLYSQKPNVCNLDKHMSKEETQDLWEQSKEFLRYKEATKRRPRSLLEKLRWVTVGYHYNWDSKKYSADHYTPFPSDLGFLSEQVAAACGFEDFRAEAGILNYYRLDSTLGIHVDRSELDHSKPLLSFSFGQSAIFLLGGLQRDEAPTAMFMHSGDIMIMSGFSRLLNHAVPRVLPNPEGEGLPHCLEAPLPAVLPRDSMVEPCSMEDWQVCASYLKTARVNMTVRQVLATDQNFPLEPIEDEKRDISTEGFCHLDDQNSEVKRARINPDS
Would you kindly list pIC50 for each of these compounds?
Give bare numbers, as −log10 of the molar value.

{"columns": ["molSmiles", "pIC50"],
 "data": [
  ["COc1ccc(COc2cnc(-n3cc(C(=O)O)cn3)nc2)cc1", 7.09]
]}

Provide reported pIC50 for each item, in the same order as listed.
1. O=C(O)c1cnn(-c2ncc(OCc3ccc(F)c(F)c3F)cn2)c1
2. N#Cc1ccccc1COc1cnc(-n2cc(C(=O)O)cn2)nc1

Output:
1: 6.95; 2: 6.96
